TEST_SUMMARY: CHI lipophilicity by gradient reversed-phase HPLC (Gemini NX-C-18)
PARTICULARS: reversed-phase HPLC, Gemini NX-C-18 column (50 x 3 mm, 5 µm)
MEASURED_QUANTITY: chromatographic logP
Write the number on its own, no unit after it.

INPUT: # get_value(readout='chromatographic logP', item= CC(=O)S[C@@H]1CC2=CC(=O)CC[C@]2(C)[C@H]2CC[C@@]3(C)[C@@H](CC[C@@]34CCC(=O)O4)[C@H]12 )
OUTPUT: 2.97

INPUT: Also need CN1CCN(C2=Nc3cc(Cl)ccc3Nc3ccccc32)CC1 , thanks.
OUTPUT: 3.05

INPUT: Also need O=C1Cc2cc(CCN3CCN(c4nsc5ccccc45)CC3)c(Cl)cc2N1 , thanks.
OUTPUT: 2.96

INPUT: Also need O=C(NCC1CCCCN1)c1cc(OCC(F)(F)F)ccc1OCC(F)(F)F (stereo not shown) [Flecainide] , thanks.
OUTPUT: 3.01

====

TEST_SUMMARY: Charge character of the drugs at pH 7.4
Assay type: physicochemical
MEASURED_QUANTITY: Charge

Completed entries (count: 4):
O=c1n(CCCN2CCN(c3cccc(Cl)c3)CC2)nc2ccccn12 [Trazodone] | Weak Base
CN1C2CCCC1CC(NC(=O)c1nn(C)c3ccccc13)C2 (stereo not shown) [Granisetron] | Basic
CN1CCN(C2=Nc3cc(Cl)ccc3Nc3ccccc32)CC1 [Clozapine] | Weak Base
CCN(CC)CC(=O)Nc1c(C)cccc1C [Lidocaine] | Weak Base

INPUT: # get_value(readout='Charge', item= COc1ccc([C@@H]2Sc3ccccc3N(CCN(C)C)C(=O)[C@@H]2OC(C)=O)cc1 [Diltiazem] )
OUTPUT: Basic
